- EXPERIMENT NOTES: qHTS assay to identify small molecule antagonists of the estrogen related receptor signaling pathway with the pleiotropic PPARgamma coactivator (PGC) cell viability counter screen (AID 1224822;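 note: viability read after 17.5 h compound exposure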)
- SETTINGS: ERR/PGC reporter cell line viability counter screen; series mostly up to 46.1 µM
Inconclusive results are not listed. Activity calls are given as the source filed them. Calls come from the whole dose curve; as a rule, active = well fitted cell-killing curve with a large enough effect in the repeat runs; inconclusive = weak or mixed curves, or effect the other way; inactive = flat fitted curve, though single readings scatter.

CHEM SMILES: C=C(C)[C@H]1CN[C@H](C(=O)O)[C@H]1CC(=O)O
outcome: inactive
//
CHEM SMILES: NCC1(CC(=O)O)CCCCC1
outcome: inactive
//
CHEM SMILES: NNC(N)=O
outcome: inactive

====

- EXPERIMENT NOTES: qHTS assay for identifying genotoxic compounds that show differential cytotoxicity against isogenic chicken DT40 cell lines with known DNA damage response pathways - Rev3 mutant cell line (AID 743014); note: nearly all actives have a fitted effect of over 55% in size
- SETTINGS: chicken DT40 Rev3-/- viability, CellTiter-Glo, 40 h; series mostly up to 68.4 µM
Results filed as inconclusive are left out. Active and inactive are the calls of the source. Calls come from the whole dose curve; as a rule, active = well fitted cell-killing curve with a large enough effect in the repeat runs; inconclusive = weak or mixed curves, or effect the other way; inactive = no such curve, though single readings can be large or run the other way.
The reply should name one outcome from y for active, n for inactive

Consider the following illustrative entries.
CHEM SMILES: CCc1cc(OC)c(C[C@H](C)N)cc1OC
ANSWER LABEL: y
--
CHEM SMILES: CCSC(=O)Cl
ANSWER LABEL: n
--
CHEM SMILES: C=CCc1cc(OC)c2c(c1)OCO2
ANSWER LABEL: n
--
CHEM SMILES: ClCCCCCCCl
ANSWER LABEL: n
--
CHEM SMILES: O=C(O)c1c(Cl)ccc2cc(Cl)cnc12
ANSWER LABEL: n
--
CHEM SMILES: COc1ccc2c(C(=O)c3ccc(Cl)cc3)c(C)n(CC(=O)O)c2c1
ANSWER LABEL: n
--
CHEM SMILES: C[C@H](N)C(=O)c1ccccc1
ANSWER LABEL: n

Returns: the outcome recorded for CC(C)[C@]12CC(=O)[C@H](C)[C@H]1C2 in this assay. n
